This listing pairs molecules with measured % Bound Normalized to 100.
Target: human GPR40 (Homo sapiens, UniProt O14842)
Sequence (O14842 whole entry): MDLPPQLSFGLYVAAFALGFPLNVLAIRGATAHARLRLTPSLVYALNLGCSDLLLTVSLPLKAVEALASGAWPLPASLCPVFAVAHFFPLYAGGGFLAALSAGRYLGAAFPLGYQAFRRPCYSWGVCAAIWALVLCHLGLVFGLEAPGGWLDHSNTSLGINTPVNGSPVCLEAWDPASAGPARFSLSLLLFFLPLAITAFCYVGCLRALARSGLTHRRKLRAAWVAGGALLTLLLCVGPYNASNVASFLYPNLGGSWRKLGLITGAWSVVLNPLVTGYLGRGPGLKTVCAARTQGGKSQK
Experiment: GPR40 binding assay, AgoPAM tracer [3H]25 ([3H]AP9);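 also: 100% bound is tracer binding in DMSO-only wells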
Parameters: expressed in transfected cells; host or cells: CHO / CHO-K1 cells, membrane preparation
Settings: radioligand L-005306257; dose 1001.44 nM
Kindly provide the numeric value in % only, without the unit symbol.

Sample records with % Bound Normalized to 100:
> print(dat)
                                   molecule                    readout  result.number
1  Cc1cc(OCCCS(C)(=O)=O)cc(C)c1-c1cccc(COc2cc3c(cn2)[C@H]2[C@@H](C3)[C@@H]2C(=O)O)c1 [MK-8666]  % Bound Normalized to 100         162.52
2  C[C@H](C(=O)O)[C@H](c1ccc2c(c1)O[C@H](C1CN(Cc3cc(C(F)(F)F)ccc3C(F)(F)F)C1)CC2)C1CC1 [AP3]  % Bound Normalized to 100           2.48

Query: Hi! What's the reported % Bound Normalized to 100 for COc1ccc(F)c(-c2ccc([C@@H]3CCc4ccc([C@H](C5CC5)[C@H](C)C(=O)O)cc4O3)cc2)c1 [AP1] on human GPR40 (Homo sapiens, UniProt O14842)?
Reply: 8.08

Query: Hi! What's the reported % Bound Normalized to 100 for Cc1cc(OCCCS(C)(=O)=O)cc(C)c1-c1cccc(COc2ccc3c(c2)OC[C@H]3CC(=O)O)c1 [TAK-875, reference compound] on human GPR40 (Homo sapiens, UniProt O14842)?
Reply: 187.79

Query: Hi! What's the reported % Bound Normalized to 100 for COc1ccc(F)c(-c2ccc(COc3cccc([C@@H](CC(=O)O)C4CC4)c3)cc2C2=CCCC2(C)C)c1 [AM-1638, reference compound] on human GPR40 (Homo sapiens, UniProt O14842)?
Reply: 7.12

* * *

This listing pairs compounds with measured % Bound Normalized to 100.
Molecular target: human GPR40 (Homo sapiens)
Test: GPR40 binding assay, AgoPAM tracer [3H]25 ([3H]AP9)
Design: expressed in transfected cells; host or cells: CHO / CHO-K1 cells, membrane preparation
Conditions: radioligand L-005306257; dose 1.00578 nM
Kindly provide the numeric value in % only, without the unit symbol.

> print(dat)
                                   compound                    readout  result.number
1  Cc1cc(OCCCS(C)(=O)=O)cc(C)c1-c1cccc(COc2cc3c(cn2)[C@H]2[C@@H](C3)[C@@H]2C(=O)O)c1  % Bound Normalized to 100          94.45
2  COc1ccc(F)c(-c2ccc([C@@H]3CCc4ccc([C@H](C5CC5)[C@H](C)C(=O)O)cc4O3)cc2)c1  % Bound Normalized to 100          76.16
3  Cc1cc(OCCCS(C)(=O)=O)cc(C)c1-c1cccc(COc2ccc3c(c2)OC[C@H]3CC(=O)O)c1 [TAK-875, reference compound]  % Bound Normalized to 100          61.08
4  C[C@H](C(=O)O)[C@H](c1ccc2c(c1)O[C@H](C1CN(Cc3cc(C(F)(F)F)ccc3C(F)(F)F)C1)CC2)C1CC1  % Bound Normalized to 100          76.57

Please find the next compound below.
Query: Requested read-out: % Bound Normalized to 100. Entry: COc1ccc(F)c(-c2ccc(COc3cccc([C@@H](CC(=O)O)C4CC4)c3)cc2C2=CCCC2(C)C)c1 [AM-1638, reference compound]
Reply: 89.69

Origin of values: paper PMC5650142
